Cited source: PubChem BioAssay AID2060903

- System: 377384-186-R-J1-PDC complex spheroid viability;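 note: spheroids exposed to compounds for seven days before readout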
- Test: Anticancer human tumor 377384-186-R-J1-PDC patient-derived pancreatic carcinoma cell line growth inhibition [RAS]
- Cond: second compound 10 µM; first compound 10 µM; active compounds read low
Measure name: viability, T/C (%)
Write the answer as a number in %, unit excluded.

Example results:
CC(=O)OC12COC1CC(O)C1(C)C(=O)C(O)C3=C(C)C(OC(=O)C(O)C(NC(=O)OC(C)(C)C)c4ccccc4)CC(O)(C(OC(=O)c4ccccc4)C21)C3(C)C (stereo not drawn) + C#Cc1c(F)ccc2cc(O)cc(-c3ncc4c(N5CC6CCC(C5)N6)nc(OCC56CCCN5CC(F)C6)nc4c3F)c12 = 0.94
C[C@@H](NC(=O)c1ncnc(N)c1Cl)c1ncc(C(=O)Nc2cc(C(F)(F)F)c(Cl)cn2)s1 + C#Cc1c(F)ccc2cc(O)cc(-c3ncc4c(N5CC6CCC(C5)N6)nc(OCC56CCCN5CC(F)C6)nc4c3F)c12 = 1.16

Then there is this compound:
[in] Give its viability, T/C value. Item: CC(Nc1ccc2c(c1)OCCn1cc(N3C(=O)OCC3C(F)F)nc1-2)C(N)=O (stereo not drawn) + C#Cc1c(F)ccc2cc(O)cc(-c3ncc4c(N5CC6CCC(C5)N6)nc(OCC56CCCN5CC(F)C6)nc4c3F)c12
[out] 0.11
